testedOn: T1, SLP65 peptide (Homo sapiens, UniProt Q8WV28)
T1 chain: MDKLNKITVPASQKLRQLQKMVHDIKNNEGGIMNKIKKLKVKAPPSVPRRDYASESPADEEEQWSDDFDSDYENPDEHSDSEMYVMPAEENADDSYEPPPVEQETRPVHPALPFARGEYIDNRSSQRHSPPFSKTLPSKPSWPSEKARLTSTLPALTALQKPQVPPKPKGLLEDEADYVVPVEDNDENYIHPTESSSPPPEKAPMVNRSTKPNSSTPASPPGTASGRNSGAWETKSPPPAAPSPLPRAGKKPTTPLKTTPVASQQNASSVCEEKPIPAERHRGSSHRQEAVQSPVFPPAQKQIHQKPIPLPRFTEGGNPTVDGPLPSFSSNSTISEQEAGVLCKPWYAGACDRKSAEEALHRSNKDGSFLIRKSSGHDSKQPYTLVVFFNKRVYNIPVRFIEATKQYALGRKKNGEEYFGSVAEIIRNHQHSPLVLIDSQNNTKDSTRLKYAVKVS
assayText: ITC
quantityKind: Kd (µM)

> print(dat)
                                     binder  recordedresult
1  Grb2 SH3C (protein, Grb2 SH3C pre-bound to Vav SH3N) QQPTYVQALFDFDPQEDGELGFRRGDFIHVMDNSDPNWWKGACHGQTGMFPRNYVTPVNR            33.3
